# Test system: SCLC strain SHP-77
# assay-info: Colorimetric tetrazolium (MTT) assay for cell survival, SCLC strain SHP-77
# Type: cell-based, human
# condition-label: Table 1; SHP-77, MTT, 4 days
property-measured: MTT: ED50 for killing of SCLC strain SHP-77 in vitro

> print(dat)
                                  substance  recorded.measurement
1  F5c-DArg-Arg-Eac-Ser-DIgl-Oic-Arg [M852]                 Inact
2  DDD-(DArg-Arg-Aud-DTic-hPhe-Arg)2 [M770]                  8 µM
3           Ava-Igl-Ser-DF5F-Oic-Arg [M806]                 Inact
